As shown below, each of these compounds has a reported IC50 value.
Target: KRAS(G12D)/SOS1 (Homo sapiens, UniProt P01116, G12D)
Sequence (P01116 1-188 isoform P01116-2 G12D): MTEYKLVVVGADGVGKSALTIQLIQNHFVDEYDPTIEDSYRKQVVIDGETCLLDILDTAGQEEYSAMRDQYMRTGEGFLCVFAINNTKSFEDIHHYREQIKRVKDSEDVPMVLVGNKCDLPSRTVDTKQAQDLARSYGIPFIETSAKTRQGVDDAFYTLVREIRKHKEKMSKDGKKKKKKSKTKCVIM
Assay: KRAS(G12D)/SOS1 homogeneous time-resolved fluorescence (HTRF) assay
Details: absence of GTP, 4° C. for 3 hr
Counter-ions that a name gives are not always drawn.
Measure name: IC50

# Compound, Measure name, Observed value
data = [
    ("CN1C[C@@H](N2CCC(C(=O)NCCOc3ccc4c(c3)C(=O)N(C3CCC(=O)NC3=O)C4=O)CC2)C[C@H]1COc1nc(N2CC3CCC(C2)N3)c2cnc(-c3cccc4ccccc34)c(F)c2n1 (some centres unmarked) [Compound 22, formate]", "IC50", "> 1000 nM"),
    ("C#Cc1c(F)ccc2cc(O)cc(-c3nc(OC)c4c(N5CC6CCC(C5)N6)nc(OCC5(CN6CCN(C7CCN(c8ccc9c(c8)CN(C8CCC(=O)NC8=O)C9=O)CC7)CC6)CC5)nc4c3F)c12 (centres unmarked) [Compound 112]", "IC50", "< 100 nM"),
    ("C#Cc1c(F)ccc2cc(O)cc(-c3ncc4c(N5CC6CCC(C5)N6)nc(OCC5(CN6CCC7(CC6)CN(c6ccc8c(c6)CN(C6CCC(=O)NC6=O)C8=O)C7)CC5)nc4c3F)c12 (centres unmarked) [Compound 116]", "IC50", "< 100 nM"),
    ("C#Cc1c(F)ccc2cc(O)cc(-c3nc(OC)c4c(N5CCN(C)[C@@H](CC#N)C5)nc(OCC5(CN6CCN(CC7CCN(c8ccc9c(c8)CN(C8CCC(=O)NC8=O)C9=O)CC7)CC6)CC5)nc4c3F)c12 (some centres unmarked) [Compound 106]", "IC50", "< 100 nM"),
    ("Cc1ncsc1-c1ccc(CNC(=O)[C@@H]2C[C@@H](O)CN2C(=O)[C@@H](NC(=O)CCCNC(=O)C2CCN([C@H]3C[C@@H](COc4nc(N5CC6CCC(C5)N6)c5cnc(-c6cccc7cccc(Cl)c67)c(F)c5n4)N(C)C3)CC2)C(C)(C)C)cc1 [Compound 26]", "IC50", "< 100 nM"),
]

* * *

Test system: A-427 human lung carcinoma
Experiment: CellTiter-Glo cancer cell line proliferation assay, A-427
Format: cell-based
Details: Homo sapiens, A-427, 24 hr, read-out: A427 at 24 hrs, IC50
pIC50: −log10 of the molar value. Counter-ions that a name gives are not always drawn.

# Compound, pIC50
data = [
    ("CN1C[C@@H](N2CCC(C(=O)Nc3ccc4c(c3)C(=O)N(C3CCC(=O)NC3=O)C4=O)CC2)C[C@H]1COc1nc(N2CC3CCC(C2)N3)c2cnc(-c3cccc4cccc(Cl)c34)c(F)c2n1 (stereo partly drawn) [Compound 10, formate]", "< 6.00"),
    ("C#Cc1cccc2cccc(-c3ncc4c(N5CC6CCC(C5)N6)nc(OCCN5CCN(Cc6ccc7c(c6)C(=O)N(C6CCC(=O)NC6=O)C7=O)CC5)nc4c3F)c12 (stereo not drawn) [Compound 2, hydrochloride]", "< 6.00"),
    ("C#Cc1c(F)ccc2cc(O)cc(-c3ncc4c(N5CC6CCC(C5)N6)nc(OCC5(CN6CCN(CC7CCN(c8ccc9c(c8)C(=O)N(C8CCC(=O)NC8=O)C9=O)CC7)CC6)CC5)nc4c3F)c12 (stereo not drawn)", "6.00 to 7.00"),
    ("C#Cc1cccc2cc(O)cc(-c3ncc4c(N5CC6CCC(C5)N6)nc(OCC5(CN6CCN(CC7CCN(c8ccc9c(c8)C(=O)N(C8CCC(=O)NC8=O)C9)CC7)CC6)CC5)nc4c3F)c12 (stereo not drawn)", "> 7.00"),
    ("C#Cc1cccc2cc(O)cc(-c3ncc4c(N5CC6CCC(C5)N6)nc(OCC5(CN6CCN(C(=O)N7CCN(c8ccc9c(c8)CN(C8CCC(=O)NC8=O)C9=O)CC7)CC6)CC5)nc4c3F)c12 (stereo not drawn)", "< 6.00"),
    ("C#Cc1cccc2cc(O)cc(-c3ncc4c(N5CC6CCC(C5)N6)nc(OCC5(CN6CCC(C(=O)N7CCN(c8ccc9c(c8)CN(C8CCC(=O)NC8=O)C9=O)CC7)CC6)CC5)nc4c3F)c12 (stereo not drawn)", "> 7.00"),
    ("C#Cc1cccc2cc(O)cc(-c3ncc4c(N5CC6CCC(C5)N6)nc(OCC5(CN6CCN(CC7CCN(CC(=O)N[C@@H](C(=O)N8C[C@@H](O)C[C@@H]8C(=O)NCc8ccc(-c9scnc9C)cc8)C(C)(C)C)CC7)CC6)CC5)nc4c3F)c12", "< 6.00"),
    ("CN1C[C@@H](N2CCC(C(=O)N3CCN(c4ccc5c(c4)C(=O)N(C4CCC(=O)NC4=O)C5=O)CC3)CC2)C[C@H]1COc1nc(N2CC3CCC(C2)N3)c2cnc(-c3cccc4ccccc34)c(F)c2n1 (stereo partly drawn) [Compound 19, formate]", "< 6.00"),
    ("C#Cc1c(F)ccc2cc(O)cc(-c3nc(OC)c4c(N5CC6CCC(C5)N6C(=O)C(F)(F)F)nc(OCC5(CN6CCN(CC7CCN(c8ccc9c(c8)CN(C8CCC(=O)NC8=O)C9=O)CC7)CC6)CC5)nc4c3F)c12 (stereo not drawn)", "< 6.00"),
    ("Cc1ncsc1-c1ccc(CNC(=O)[C@@H]2C[C@@H](O)CN2C(=O)[C@@H](NC(=O)CCCNC(=O)C2CCN([C@H]3C[C@@H](COc4nc(N5CC6CCC(C5)N6)c5cnc(-c6cccc7cccc(Cl)c67)c(F)c5n4)N(C)C3)CC2)C(C)(C)C)cc1", "< 6.00"),
    ("C#Cc1c(F)ccc2cc(O)cc(-c3nc(OC)c4c(N5CC6CCC(C5)N6)nc(OCC5(CN6CCN(CC7CCN(c8ccc9c(c8)CN(C8CCC(=O)NC8=O)C9=O)CC7)CC6)CC5)nc4c3F)c12 (stereo not drawn)", "6.00 to 7.00"),
    ("CN1C[C@@H](N2CCC(C(=O)NCCOc3ccc4c(c3)C(=O)N(C3CCC(=O)NC3=O)C4=O)CC2)C[C@H]1COc1nc(N2CC3CCC(C2)N3)c2cnc(-c3cccc4ccccc34)c(F)c2n1 (stereo partly drawn) [Compound 22, formate]", "< 6.00"),
    ("C#Cc1c(F)ccc2cc(O)cc(-c3ncc4c(N5CC6CCC(C5)N6)nc(OCC5(CN6CCN(Cc7ccc8c(c7)C(=O)N(C7CCC(=O)NC7=O)C8=O)CC6)CC5)nc4c3F)c12 (stereo not drawn)", "< 6.00"),
    ("C#Cc1c(F)ccc2cc(O)cc(-c3ncc4c(N5CC6CCC(C5)N6)nc(OCC5(CN6CCC(C7CCN(c8ccc9c(c8)CN(C8CCC(=O)NC8=O)C9=O)CC7)CC6)CC5)nc4c3F)c12 (stereo not drawn)", "6.00 to 7.00"),
    ("C#Cc1cccc2cccc(-c3ncc4c(N5CC6CCC(C5)N6)nc(OCC5(CN6CCN(Cc7ccc8c(c7)CN(C7CCC(=O)NC7=O)C8=O)CC6)CC5)nc4c3F)c12 (stereo not drawn) [Compound 31, formate]", "< 6.00"),
    ("C#Cc1cccc2cc(O)cc(-c3ncc4c(N5CC6CCC(C5)N6)nc(OCC5(CN6CCN(CC7CCN(c8ccc(NC9CCC(=O)NC9=O)cc8)CC7)CC6)CC5)nc4c3F)c12 (stereo not drawn)", "6.00 to 7.00"),
    ("C#Cc1cccc2cc(O)cc(-c3ncc4c(N5CC6CCC(C5)N6)nc(OC[C@H]5CC[C@@H](CN6CCN(CC7CCN(c8ccc9c(c8)C(=O)N(C8CCC(=O)NC8=O)C9=O)CC7)CC6)N5C)nc4c3F)c12 (stereo partly drawn)", "< 6.00"),
    ("CN1C[C@H](N2CCN(C(=O)C3CCN(c4ccc5c(c4)C(=O)N(C4CCC(=O)NC4=O)C5=O)CC3)CC2)C[C@@H]1COc1nc(N2CC3CCC(C2)N3)c2cnc(-c3cc(O)cc4ccccc34)c(F)c2n1 (stereo partly drawn)", "< 6.00"),
]

* * *

Target: KRAS(G12D) (Homo sapiens, UniProt P01116, G12D)
Construct: endogenous in cells; host or cells: SW1990
Assay: SW1990 WB assay (degradation DC50, Dmax)
Type: cell-based
Details: Western blot, SW1990 cells
As shown below, each of these compounds has a reported Dmax value.

# Compound, Study system, Dmax
data = [
    ("C#Cc1c(F)ccc2cc(O)cc(-c3ncc4c(N5CC6CCC(C5)N6)nc(OCC5(CN6CCN(CC7CN(c8ccc9c(c8)CN(C8CCC(=O)NC8=O)C9=O)C7)CC6)CC5)nc4c3F)c12 (centres unmarked) [Compound 103]", "KRAS(G12D) (Homo sapiens, UniProt P01116, G12D)", "10 to 50%"),
    ("C#Cc1c(F)ccc2cc(O)cc(-c3nc(OC)c4c(N5CC6CCC(C5)N6C(=O)C(F)(F)F)nc(OCC5(CN6CCN(CC7CCN(c8ccc9c(c8)CN(C8CCC(=O)NC8=O)C9=O)CC7)CC6)CC5)nc4c3F)c12 (centres unmarked) [Compound 93]", "KRAS(G12D) (Homo sapiens, UniProt P01116, G12D)", "10 to 50%"),
    ("C#Cc1cccc2cc(O)cc(-c3ncc4c(N5CC6CCC(C5)N6)nc(OCC5(CN6CCN(CC7CCN(c8ccc9c(c8)CN(C8CCC(=O)NC8=O)C9=O)CC7)CC6)CC5)nc4c3F)c12 (centres unmarked) [Compound 57]", "KRAS(G12D) (Homo sapiens, UniProt P01116, G12D)", "> 50%"),
    ("C#Cc1cccc2cc(O)cc(-c3ncc4c(N5CC6CCC(C5)N6)nc(OCC5(CN6CCN(CC7CCN(c8ccc9c(c8)CN(C8CCC(=O)N(C)C8=O)C9=O)CC7)CC6)CC5)nc4c3F)c12 (centres unmarked) [Compound 71]", "KRAS(G12D) (Homo sapiens, UniProt P01116, G12D)", "10 to 50%"),
    ("C#Cc1cccc2cc(O)cc(-c3ncc4c(N5CC6CCC(C5)N6)nc(OCC5(CN6CCN(CC7CCN(c8ccc(NC9CCC(=O)NC9=O)cc8)CC7)CC6)CC5)nc4c3F)c12 (centres unmarked) [Compound 95]", "KRAS(G12D) (Homo sapiens, UniProt P01116, G12D)", "< 10%"),
]
